test system: rabbit serum obtained by immunizing a rabbit with the SARS-CoV strain Frankfurt 1; format: binding; design: unit not given here
MEASUREMENT TYPE: Rabbit serum linear peptides
In your answer, state the number alone without any accompanying words.

Recorded results for 5 sequences are shown here.
POLYMER SEQUENCE | MEASUREMENT TYPE | QUANTITATIVE READOUT
LVIGAVIIRGHLRMA | Rabbit serum linear peptides | 0.2
YEGNSPFHPLADNKF | Rabbit serum linear peptides | 0.6
VTIAEILIIIMRTFR | Rabbit serum linear peptides | 0.2
ARTRSMWSFNPETNI | Rabbit serum linear peptides | 0.2
SYFVASFRLFARTRS | Rabbit serum linear peptides | 0.2

Rabbit serum linear peptides lookup needed for `YNTRGNTYSTAWLCA` , thanks.
0.7

Rabbit serum linear peptides lookup needed for `LIIIMRTFRIAIWNL` , thanks.
0.5

---

system: control sera (pooled serum of ten healthy LUMC hospital workers; commercial negative donor pooled serum from the Dutch bloodbank); type: binding, human; parameters: unit not given here
MEASUREMENT TYPE: Binding of Control serum Blood-bank to linear peptides
In your answer, state the number alone without any accompanying words.

Recorded results for 3 sequences are shown here.
POLYMER SEQUENCE | QUANTITATIVE READOUT
QGTTLPKGFYAEGSR | 0.8
QKRTATKQYNVTQAF | 0.8
TCTSTHFAFACADGT | 0.8

Binding of Control serum Blood-bank to linear peptides lookup needed for `TKLVVILRIGTQVLK` , thanks.
0.7

Binding of Control serum Blood-bank to linear peptides lookup needed for `VFTSCELYHYQECVR` , thanks.
0.7

---

tested on: rabbit serum obtained by immunizing a rabbit with the SARS-CoV strain Frankfurt 1; type: binding; set-up: unit not given here
# note: boundary value 0.3 maps to False; Binding of a rabbit serum to linear peptides below it maps to True

Given `FTTSLSLHKLLQTLV` , is recorded Binding of a rabbit serum to linear peptides strictly lower than 0.3?
True

Given `ATIPLQASLPFGWLV` , is recorded Binding of a rabbit serum to linear peptides strictly lower than 0.3?
True

---

system: antibodies in sera from SARS patients (sera 1a, 1b, 2, 6, 37, 62, London, SARS-yellow, SARS-green); type: binding, human
The entries below come with measured Binding of serum 62 to looped/cyclic peptides of protein X5 of SARS-CoV Urbani values attached.
In your answer, state the number alone without any accompanying words.

Recorded results for 5 sequences are shown here.
POLYMER SEQUENCE | QUANTITATIVE READOUT
LPFHRWHTMVQTCTP | 0.3
NTRGNTYSTAWLCAL | 0.7
DPAGGALIARCWYLH | 0.6
GKVLPFHRWHTMVQT | 0.5
PAGGALIARCWYLHE | 0.7

Binding of serum 62 to looped/cyclic peptides of protein X5 of SARS-CoV Urbani lookup needed for `QTCTPNVTINCQDPA` , thanks.
0.2

Binding of serum 62 to looped/cyclic peptides of protein X5 of SARS-CoV Urbani lookup needed for `TRGNTYSTAWLCALG` , thanks.
0.6

---

system: antibodies in sera from SARS patients (sera 1a, 1b, 2, 6, 37, 62, London, SARS-yellow, SARS-green); assay type: binding, human
MEASUREMENT TYPE: Binding of serum 2 to linear peptides of protein N of SARS-CoV Urbani
In your answer, state the number alone without any accompanying words.

Recorded results for 5 sequences are shown here.
POLYMER SEQUENCE | QUANTITATIVE READOUT
LIRQGTDYKHWPQIA | 0.4
RPKQRRPQGLPNNTA | 0.3
STDNNQNGGRNGARP | 0.2
EPKKDKKKKTDEAQP | 2.4
DAYKTFPPTEPKKDK | 0.3

Binding of serum 2 to linear peptides of protein N of SARS-CoV Urbani lookup needed for `DYKHWPQIAQFAPSA` , thanks.
0.2

Binding of serum 2 to linear peptides of protein N of SARS-CoV Urbani lookup needed for `YLGTGPEASLPYGAN` , thanks.
0.2

Binding of serum 2 to linear peptides of protein N of SARS-CoV Urbani lookup needed for `KKKTDEAQPLPQRQK` , thanks.
0.2

Cited source for all entries: patent US20070128217A1
